# Test system: MYXV
# test_name: microbe, parasite or virus in culture
# Type: cell-based, myxoma virus
# measurement_parameters: Myxoma virus, 24 h, read-out: EC50 of exogenous arginine for production of new infectious MYXV progeny
measurement_kind: EC50

Inquiry: # query: EC50 of entry N=C(N)NCCC[C@H](N)C(=O)O
Reply text: ~50 µM
